biological target: DPPIV (Homo sapiens, UniProt P27487); assay: Inhibitory activity against human recombinant DPPIV (IC50); conditions: selected substances
Sequence (P27487 whole entry): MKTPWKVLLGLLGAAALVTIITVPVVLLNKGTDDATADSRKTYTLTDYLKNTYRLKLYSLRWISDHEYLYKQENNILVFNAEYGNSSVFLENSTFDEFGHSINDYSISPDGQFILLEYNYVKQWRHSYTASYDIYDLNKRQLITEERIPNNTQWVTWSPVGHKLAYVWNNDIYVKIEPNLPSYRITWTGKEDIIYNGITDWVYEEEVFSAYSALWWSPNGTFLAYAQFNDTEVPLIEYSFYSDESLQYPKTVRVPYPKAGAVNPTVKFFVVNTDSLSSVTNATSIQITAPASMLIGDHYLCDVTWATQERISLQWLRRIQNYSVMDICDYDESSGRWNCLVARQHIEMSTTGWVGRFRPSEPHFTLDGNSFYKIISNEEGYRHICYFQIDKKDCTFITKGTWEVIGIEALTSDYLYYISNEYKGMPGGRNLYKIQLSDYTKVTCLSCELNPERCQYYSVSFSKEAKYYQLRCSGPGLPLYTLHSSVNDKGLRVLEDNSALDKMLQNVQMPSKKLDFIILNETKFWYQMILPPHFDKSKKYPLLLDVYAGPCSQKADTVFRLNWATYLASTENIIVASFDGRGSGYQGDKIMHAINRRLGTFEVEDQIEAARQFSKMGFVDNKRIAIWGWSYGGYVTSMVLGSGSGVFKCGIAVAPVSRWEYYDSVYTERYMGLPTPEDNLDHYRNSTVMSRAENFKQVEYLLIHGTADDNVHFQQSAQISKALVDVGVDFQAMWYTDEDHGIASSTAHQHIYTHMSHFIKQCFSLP
pIC50: −log10 of the molar value.
measurement label: pIC50

Some molecules with recorded pIC50:
molecule: COc1ccc(CNC(=O)C(=O)[C@@H]2CCCN2C(=O)CNC(=O)c2ccnc3ccccc23)cc1OC [Compound 3b]
recorded result: < 5.40
//
molecule: CCCCCNC(=O)C(=O)[C@@H]1CCCN1C(=O)CNC(=O)c1ccnc2ccccc12 [Compound 3j]
recorded result: < 5.40
//
molecule: CC(C)(C)OC(=O)CNC(=O)C(=O)[C@@H]1CCCN1C(=O)CNC(=O)c1ccnc2ccccc12 [Compound 3l]
recorded result: < 5.40

[in] Tell me reported pIC50 for COc1ccc(CCNC(=O)C(=O)[C@@H]2CCCN2C(=O)CNC(=O)c2ccnc3ccccc23)cc1OC [Compound 3e] , tested with DPPIV (Homo sapiens, UniProt P27487).
[out] < 5.40
